Target: GRK1 (human)
Experiment: KINOMEscan competition binding
Settings: compound 10.0 µM
readout-type: kinase still bound, per cent of control (%)

# chem-smiles, kinase still bound, per cent of control [%]
rows = [
    ("COc1ccc(CNC(=O)Nc2ncc([N+](=O)[O-])s2)cc1", 100),
    ("Cn1cc(C2=C(c3ccc(Cl)cc3Cl)C(=O)NC2=O)c2ccccc21", 83),
]

1 = Cc1cnc(-c2cnc(NCCNc3ccc(C#N)cn3)nc2-c2ccc(Cl)cc2Cl)[nH]1
2 = O=C1Nc2cc(Br)ccc2/C1=C1/Nc2ccccc2/C1=N\O
**Q:** For the two items 1 and 2 , which reports the higher kinase still bound, per cent of control value? # respond with the chosen item's label
**A:** 1

Values from the kinase profiling compilation of Christmann-Franck et al. (2016)
